experiment: protease stability score; higher = more stable; yeast display proteolysis, trypsin and chymotrypsin
// bucketize protease stability score: bottom range: < 1; center range: ≥ 1 and < 2; top range: ≥ 2

Could you place DEERHILEELMRILTEAMHTGDEHLLEWLLDPHMIIEIGDKTLHGRDQILRVVEEIRRHIRRIEVKHSHVQGDKIRIEGHMHSETEFNGRRFSFTVYVEIIIVKINGVWRIRSLHIH in its proper category? Many thanks.
center range

Could you place DEEEEHLHSVAKRFLHSVETGDWKDLYELLDPHARFESVFNGRKVEHHGREEARKWFQEWVERFKNMRLHIEEVRTQGDKTHVDSRVHYGDKTINTIIHIVIVNGKVHHVEIRVK in its proper category? Many thanks.
top range

Could you place DERDEMSRHLVRLWIRLYRTGDWKELYDNLDPNARLIIGDKEYHGREEVVEIFLELAKRFKNVKVEFKEIHFQGDKMTLREEVRQGDWRVEVIIKVEFIDGKLHHVQIIFG in its proper category? Many thanks.
top range

Could you place DTDQTLFEDYAKMYMKDLLTGDFESIEKYADPRVQVHIGDKEIHGREIFVKYLWEHNEQVDHRQFHFKDVDHFDGKIHVHMEMHIDVNGKLINEKLHVIIWKFNGRWIMKSVHHR in its proper category? Many thanks.
bottom range

Could you place DEEKKEVNRIFELWARLFETGDEDSIHRLLDPNARLEVNGQEIHGRHNISRTFLEFKERFKGIKIELILREVRVIGDKVHIHSELRVNINGREESFETDIDLVVIDGKLHSFRFHVH in its proper category? Many thanks.
top range

Could you place TEQMEWVEDIVRILVESINTGDEHVLKEMLDPNVRIHIGDKNVIGMEFIHRWLKEIRIEHLRVEISDVRFIGDKVKVRGRLKLHVDVDGRRHDVSHDVIIVFEKVDGKWFEREDRLL in its proper category? Many thanks.
center range

Could you place SEEHKLLRETLEILWDTIETGDEHKLSNLLDPRARLRVGDKEYHGREEVMRIMTEIRVDRFRLHSITLVDGRAIIHTEIDVRVNGQRFRTSVTIFLIKVDGRWFVESLQID in its proper category? Many thanks.
top range

----------
experiment: protease stability score; higher = more stable; yeast display proteolysis, trypsin and chymotrypsin;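 further: relative to predicted unfolded state with 0 unfolded-like and 1 meaning tenfold more protease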
Kind request: treat 1 as inclusive, so protease stability score at 1 or higher is TRUE, anything lower is FALSE.

These solved cases illustrate the format of a correct answer.
entry_sequence=DELRKEAEEHAQHLLDLFDTGDWDRISELADPNTLVIIDINGVHINNVGWEEIRKLWEITRHHLRIEERRVESSRTFENRVELDVKDHIKVGNKKINLDSHITIDVVNGQMKRVDFQLR label_value=TRUE
entry_sequence=DEDEEAAEKMTELFRKSIKTGDEDLLTRLIDPHVRVDVNGRDIHGRESYFHELRNLGITNVEMQLKSRDVIGDKVHIDGTNRFNGRNHKVIIIVLKFNGRWVIEEIRIH label_value=FALSE
entry_sequence=SKEEKETEKAMEESLHIFETGDWKAFHDNVDPNVRLHIGDKDSHGRERATELYLTVVHHLGINHIQIDSFQINIQGDKVVINIDGTSHVGDKWSRIRVHIVERKIDGRWLISSFKMHIE label_value=TRUE

Could you verify whether the entry TELEDELRKMFESWRHNSRTGNEHAEDNNMDPNVKLLIDGRTVVGMEFYRKWVHEARIEDSHVDHHTVIDGRAHVHMTLNSNYNGVHRRLEIELVSEKIDGKWRLKSIIIR shows protease stability score of no less than 1?
TRUE

Could you verify whether the entry SEDHKASHFNLILLLRAINTGDEDLEKELADPHVRYEFNGVDLVGMEDWVRFLEEIRVHPRDVKIQRHRVVNGRITFDVRLEGEFTYNGRTYRDTRETTAFVLKVNGRWIMHLHRID shows protease stability score of no less than 1?
TRUE

Could you verify whether the entry REDDERIDEMVELIFHWEQTGDEEKVYNNMDPHVRIDYNGRELHGWKKFTEELRLIYEEMRLKHIHISHQTIQGEKAIVHVELEGQVGDKRYIHRREIIVLKIDGKWIIKMVRFV shows protease stability score of no less than 1?
TRUE

Could you verify whether the entry DEDFEHARRVLELFIESVETGDENSYRRLADPNTRYHAENHEHHGREYYIRLLEELRMSVHDLKIESWRLVDGQLRLNTRTDLHVNVNGQRIRLDTETHIVLNKINGRWYIHIIYIG shows protease stability score of no less than 1?
TRUE

Could you verify whether the entry DEEKKFYIKLFELFWRAWLTGNEQFLLEMADPNVKVEYTYNGRDVRTHGRETMYTFLHEILRYLGVKHSRLRRDEFQGDKVHLDVEEHFNGRTVKTLIIIDVVDGRLEIDKFHTT shows protease stability score of no less than 1?
FALSE

----------
assay: protease stability score; higher = more stable; yeast display proteolysis, trypsin and chymotrypsin;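 further: relative to predicted unfolded state with 0 unfolded-like and 1 meaning tenfold more protease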
Kind request: treat 1 as inclusive, so protease stability score at 1 or higher is satisfied, anything lower is not satisfied.

entry_sequence=DEKSEHILELLRLMLELLVTGDWSMLRKLVDPNARMYYGDKEFHGWEDMVKFIKILLERIDHVEIRLHNSDVQGEKAKSDGTLIERVNGQEVRFDSHIINIVVNGRAKEVRIEVH label_value=satisfied
entry_sequence=SEEDEETRKFLDLLFETRHTGDEEMSRQLADPNYQEEFENHTFHGREDFSRFIKELRIHEIRITHIYAQGDKLHIDGELRGEFNGQEVRFRVELHVVKIDGRWVLKSMRVV label_value=satisfied
entry_sequence=DEDKEAARHFSKILIHLMLTGDEEMIERLLDPDVKVHLVINGVHIERHGREEMIKMHRELLEQIRWKDFILRDIKVVNGVAHVDGELRREQGDKHETVRVRIDIVVINGRIRQVHIEFR label_value="not satisfied"

Could you verify whether the entry SHDEDRLREMIERWVEFMITGDEDRLRELADPNMRIHVNGKDLHGREEYARWINELGVKHIEITHVDLQGDKIDIVTELRFDGRTHDIHIKARKIDGRWHLTEFREE shows protease stability score of no less than 1?
satisfied

Could you verify whether the entry DELEKDARKLFEMIYRMLKTGDEDHFLRLADPDVRVHQGDKEIHGMDISKQIVEDLGIQKIEVHVHKVEIQGDKVDITGEVNWNGQNINLIVYTEKVNGKWRIHSVELH shows protease stability score of no less than 1?
satisfied

Could you verify whether the entry SEEEEEARKFSEDLIRSTRTGDEKAWNDLLDPDVRIDINGKTHHGREEFLKLLQHLRERADHWRIELKHTDVYDGKVHHDIHVQISVGDKTFHHRIHLIVVKIDGKWLLKRVDVR shows protease stability score of no less than 1?
satisfied

----------
Consider the following sequences; for each one, report its protease stability score.
assay: protease stability score; higher = more stable; yeast display proteolysis, trypsin and chymotrypsin;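 further: relative to predicted unfolded state with 0 unfolded-like and 1 meaning tenfold more protease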
Give bare numbers.

entry_sequence=DEDEELYEKFTRDLNHSLMTGDEEVMRELADPHVKVDFNGRELHGWEAVTFLLRVMGIDHLELKDIRLQGDKARNYTILRFNGRTSTLIVVLHKVNGKWIIESFEYR outcome_measure="protease stability score" value_measured=1.07
entry_sequence=SEEEEISKELARLWLHLFFTGNEEKLTELFDPNARLIVGDKQRHGRERVIKIFHEWLLELGIDYLDIHHIEFQGEKVHMNTKVRQGDFETRTEVNLIIVNGRIKEVRFDLR outcome_measure="protease stability score" value_measured=1.19
entry_sequence=KEHNDALELMYHWLIHLWKTGDERDIYELFDPNVRVDVNGRELHGMELVSHIELREMKRLGFKVIHIELTSVRYIGDKIEIDTIFHLHVGEYTERREHHILSYKVDGRWFVKESEVN outcome_measure="protease stability score" value_measured=1.18
entry_sequence=SEEEDLWKEFLRRLVETSNTGNERILSELFDPRTRIIYNGVDYVGREWALFMFLRADHVHIRIKSVDVQGEKAHVDGRMIQFVGDKEERHEVQLIDVKIDGRWLIRMMTVR outcome_measure="protease stability score" value_measured=1.51
entry_sequence=TEEEKELRHLYNRWLKDLQTGDEDSFRHLADPNVRLIVGDKDHHGWETSAQWMRELRERVDHLEIIVDSSHVINGRIESDTTIRLRVGDKTIEYRAEFEIDIVNGKMKRIVVREH outcome_measure="protease stability score" value_measured=0.998

Identify protease stability score associated with the sequence DEELEMLRRFWEDLLHSAKTGDEELWERLADPNVRVIINGKLFHGRELASHALRELFERVDVIKDVKITDEKRQGDKIHLDIRVHNHYNGKFEDNDLHIVLVKVDGKWFLKSVEFR
2.12

----------
test: protease stability score; higher = more stable; yeast display proteolysis, trypsin and chymotrypsin;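 further: relative to predicted unfolded state with 0 unfolded-like and 1 meaning tenfold more protease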
OUTCOME MEASURE: protease stability score

Example sequences with recorded protease stability score:
entry_sequence=DELTKEFEHFLEMLRRAQETGDEETVAKLMDPDVRIIIDGRNIIGREELTRFVSEWREEITVNEKHLKVINGRIHVDGEYHSRIRFDGREQRYSTRVHIVTIKVDGQWLLRTVHIG value_measured=1.05
entry_sequence=HDLEKFLDHFFEKLMKELETGDEQSWRRLADPRARLHINGKDFHGREFEHELRNKWGVSRVEEKLDSRDVIGNKLILDGSLSVNGKEIKAILFVQKVDGKWEFKEIEVH value_measured=1.34
entry_sequence=DHDTRRHEKILSDYAHALHTGNFHMLKELMDPHVRLEIGDKEFVGREEVMRYLQHIRSYIHRLRIDHIEIQGDKIHSDVREHLHFEIGDKDHNHDTRVEQLWLKVNGRWLLQQIVVR value_measured=2.16
entry_sequence=SEEDKWAEIMARLMSYLNHTGDEENFDRLADPDVRMDINGREVHGRETFNRYLRHIRIRFHDLISRDSTEVNGVLIIHGESDITIEYDGVRLRDHPKSVFYVLKINGRWRIKSISFH value_measured=1.41

// batch mode: one protease stability score value per listed entry
1. SEEEREAQTFYEEWRENFRTGDFDRLHELMDPNARIHQGDKLIIGRQLLEHWRHRFKNIRVDFDLKHIEVQGEKIILRLHFEISIDGRTEHYDMIMIVHKVDGVWIVKSFTIK
2. HENEHRMKEFVREVFDLRRTGNWEQLQELFDPNVRIEIGDKRYHGWENLSHFLLHARQDMHIEVTSVEVQGDKIIADGRLEYTLRVGDKDVTYDHRTIIIAHKFNGKWFFTTERIK

[1.43, 1.33]

Origin of the recorded values: the NTF2 design screens of Basanta et al. (2020)
